- experimental-target: T1, human OT7T175 (metastin receptor) (human, UniProt Q969F8 1-398)
- T1 construct: expressed on CHO cells; also called hOT7T175; hOT7T175-expressed CHO cells
- T1 sequence (Q969F8 whole entry L364H): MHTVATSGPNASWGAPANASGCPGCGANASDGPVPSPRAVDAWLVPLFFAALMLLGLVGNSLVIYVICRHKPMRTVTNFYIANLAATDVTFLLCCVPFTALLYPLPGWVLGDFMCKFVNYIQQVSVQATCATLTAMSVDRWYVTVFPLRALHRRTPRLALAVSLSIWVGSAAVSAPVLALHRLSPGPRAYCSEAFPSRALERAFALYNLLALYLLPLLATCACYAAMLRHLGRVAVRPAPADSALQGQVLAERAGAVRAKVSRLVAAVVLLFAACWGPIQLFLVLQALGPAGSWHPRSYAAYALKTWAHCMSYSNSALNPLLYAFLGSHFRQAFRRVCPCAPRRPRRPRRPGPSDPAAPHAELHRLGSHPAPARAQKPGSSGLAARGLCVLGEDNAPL
- experimental-protocol: competition with Cy-5 metastin (40-54) on hOT7T175-CHO cells, FMAT
Non-standard residues stand in square brackets, D forms with d. Arg(Me) = CNC(=N)NCCC[C@H](N)C(=O)O; azaGly = NNC(=O)O
assay-readout: pIC50
Hey, just a heads up that pIC50 is the negative log base 10 of the concentration in molar.

YNWNSFGLRX (Nal(1)10; C-terminal amide, also called Compound No. 133) [[Nal(1)10]MS10] = 6.48

Next binder, please.
Request: Which pIC50 is reported for this binder? Ac-WNSF[azaGly]L[Arg(Me)]F-NH2 (SMILES CNC(=N)NCCC[C@H](NC(=O)[C@H](CC(C)C)NC(=O)NNC(=O)[C@H](Cc1ccccc1)NC(=O)[C@H](CO)NC(=O)[C@H](CC(N)=O)NC(=O)[C@H](Cc1c[nH]c2ccccc12)NC(C)=O)C(=O)N[C@@H](Cc1ccccc1)C(N)=O, also called Compound No. 272) [des(1-2)-Acetyl-[AzaGly7,Arg(Me)9]MS10]
Response: 6.27
